Below, each entry is listed with its recorded growth inhibition.
- method-summary: antimalarial activity against Dd2 strain (AID 2302);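 further: 0% = DMSO untreated growth and 100% = chloroquine plus artemisinin killed control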
- reported-conditions: P. falciparum Dd2 in RBCs, LDH growth readout, 72 h; at 2 µM; hits give high values
Note: unit % is implicit; provide only the numeric part.

Sample records with growth inhibition:
[[record]]
molecule = "Cc1nc2ccc(Nc3nccc(-c4c(-c5cccc(NC(=O)c6c(F)cccc6F)c5)nn5ccccc45)n3)cc2nc1C"
value = 45

[[record]]
molecule = "O=C(CNC1=NCCN1)Nc1ccc(NC(=O)Nc2ccc(NC(=O)CNC3=NCCN3)cc2)cc1"
value = 75

[[record]]
molecule = "CC(C)CC(NC(=O)c1cccc(OCCN2CCOCC2)c1)C(=O)NC(/C=N/NC(=O)c1ccccc1)CCc1ccccc1 (centres undefined)"
value = 88


Shift focus to the following entry.
GET /values?readout=growth inhibition&item= CCCNS(=O)(=O)c1ccc(NC(=O)C(C)Oc2ccc([N+](=O)[O-])cc2)cc1 (centres undefined)
37

----------
- method-summary: HepG2 cytotoxicity, primary screen, cytotoxicity control for P. falciparum antimalarial project, cell-based, ATP luminescence (AID 2303);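 further: 0% = DMSO wells and 100% = digitonin-killed cells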
- reported-conditions: HepG2 viability, 24-48 h, at 10 µM, hits give high values
Below, each entry is listed with its recorded inhibition.
Note: unit % is implicit; provide only the numeric part.

Sample records with inhibition:
[[record]]
molecule = "COc1ccc(OC)c(NC(=O)C2c3ccccc3C(=O)N(CC(C)C)C2c2cccs2)c1 (configuration not stated)"
measured_quantity = "inhibition"
value = 9

[[record]]
molecule = "CCc1ccc(CN2CCC(CNC(=O)c3cc(-c4cccc(F)c4)cs3)C2)cc1 (configuration not stated)"
measured_quantity = "inhibition"
value = 23

[[record]]
molecule = "CCOc1cc(Cc2cnc(N)nc2N)cc(OCC)c1O"
measured_quantity = "inhibition"
value = 6

[[record]]
molecule = "O=C(NC1CC1)c1cnc(N2CCC(c3ccccc3)CC2)c(Cl)c1"
measured_quantity = "inhibition"
value = 6

[[record]]
molecule = "Cc1cc2c(NC(=O)NC3CCN(CCc4cccc(Cl)c4)CC3)cccc2cn1"
measured_quantity = "inhibition"
value = 12

[[record]]
molecule = "COc1ccc(C(=O)CCc2ccc(O)cc2)cc1"
measured_quantity = "inhibition"
value = -2

[[record]]
molecule = "O=C(Nc1cccc(-c2ccc(-c3nc4ccccc4[nH]3)cc2)c1)c1csnn1"
measured_quantity = "inhibition"
value = 31

[[record]]
molecule = "CC(C)CCNCc1ccc(OCc2cccc(C(=O)Nc3ccccc3)c2)c(I)c1"
measured_quantity = "inhibition"
value = 25


GET /values?readout=inhibition&item= c1ccc(Oc2ccc(Nc3ccnc4c(-c5ccccn5)cccc34)cc2)cc1
31

Try O=C(Nc1cccc(C(F)(F)F)c1)c1cccc(S(=O)(=O)NCC2CCCN(Cc3ccccc3)C2)c1 (configuration not stated) next.
17

Try c1ccc(-c2cccc(-c3ccccn3)n2)nc1 next.
45

Try Cc1ccc(C(=O)NC2C(=O)NC2c2ccccc2)c(C)c1 (configuration not stated) next.
7

----------
- target-or-system: L-lactate dehydrogenase (Plasmodium falciparum (isolate CDC / Honduras))
- method-summary: PfLDH activity inhibition – cell lysate, 3D7 strain, counter-screen for P. falciparum growth inhibition project (AID 2304);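 further: 0% = vehicle and 100% = reference inhibitor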
- reported-conditions: P. falciparum 3D7 crude extract, LDH APAD/NBT absorbance; at 2 µM; hits give high values
Below, each entry is listed with its recorded inhibition.
Note: unit % is implicit; provide only the numeric part.

Sample records with inhibition:
[[record]]
compound = "O=c1cc(NCCCNCc2cc(C(F)(F)F)ccc2F)[nH]c2ccccc12"
measured_quantity = "inhibition"
readout_units = "%"
value = -2

[[record]]
compound = "COc1ccc(CCNCCCCCCNCCCc2ccc(Cl)cc2)cc1OC"
measured_quantity = "inhibition"
readout_units = "%"
value = 1

[[record]]
compound = "CN1CCCC(OC(=O)c2ccccc2)C1 (stereo unspecified)"
measured_quantity = "inhibition"
readout_units = "%"
value = -5

[[record]]
compound = "Cc1ccc(NC(=O)c2cccc(CN3CCCN(Cc4cccc(O)c4)CC3)c2)cc1F"
measured_quantity = "inhibition"
readout_units = "%"
value = -5

[[record]]
compound = "CCN1CCC(N(Cc2ccc(-c3ccc(C(F)(F)F)cc3)cc2)C(=O)CCCCn2c(CCc3cccc(F)c3F)nc(=O)c3ccccc32)CC1"
measured_quantity = "inhibition"
readout_units = "%"
value = 4


GET /values?readout=inhibition&item= CC(C)NCc1ccc(-c2cccc(NC(=O)c3cccc(Cl)c3)c2)cc1
1

Try Cc1cccc(CNc2nc(C)cc(N[C@@H](CC(C)C)C(=O)NCCOc3ccccc3)n2)c1 next.
-1

Try Cc1ccc(Nc2nccc(NCC(O)c3ccc(C(F)(F)F)cc3)n2)cc1 (stereo unspecified) next.
-7

Try CCc1ccc(NC(=O)c2ccc(CN3CCCN(CC4CCCCC4)CC3)cc2)cc1 next.
3

Try O=C(NC1CCCC1)c1ccc(N2CCC(NCc3cccc(C(F)(F)F)c3)CC2)cc1 next.
1

----------
- method-summary: antimalarial activity against Dd2 strain (AID 2302);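 further: 0% = DMSO untreated growth and 100% = chloroquine plus artemisinin killed control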
- reported-conditions: P. falciparum Dd2 in RBCs, LDH growth readout, 72 h; at 2 µM; hits give high values
Below, each entry is listed with its recorded growth inhibition.
Note: unit % is implicit; provide only the numeric part.

Sample records with growth inhibition:
[[record]]
compound = "CCOc1ccc2c(NN=Cc3cccc(OC)c3)cc(C)nc2c1"
measured_quantity = "growth inhibition"
readout_units = "%"
value = 81

[[record]]
compound = "CCNCc1cccc(-c2ccc3ccnc(N)c3c2)c1"
measured_quantity = "growth inhibition"
readout_units = "%"
value = 98


GET /values?readout=growth inhibition&item= Fc1cccc2sc(Nc3nc(-c4ccccn4)cs3)nc12
97

Try COc1ccc(Nc2nccc(N3CCC(NC(=O)C(C)c4ccc(Cl)cc4)C3)n2)cc1 (stereo unspecified) next.
97

Try Cn1nccc1C(=O)NCCNCc1ccc(-c2cccc(-c3nc4ccc(F)cc4[nH]3)c2)cc1 next.
98

Try CCCC(=O)Nc1ccc(OCCCN(Cc2ccccc2OC(F)(F)F)c2ccc(C#N)c(C(F)(F)F)c2)cc1 next.
95

----------
Below, each entry is listed with its recorded inhibition.
- target-or-system: L-lactate dehydrogenase (Plasmodium falciparum (isolate CDC / Honduras))
- method-summary: PfLDH activity inhibition – cell lysate, 3D7 strain, counter-screen for P. falciparum growth inhibition project (AID 2304);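 further: 0% = vehicle and 100% = reference inhibitor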
- reported-conditions: P. falciparum 3D7 crude extract, LDH APAD/NBT absorbance; at 2 µM; hits give high values
Active and inactive are the calls of the source. The rule behind the calls is not given here.

[[record]]
molecule = "O=C(Nc1ccc(Cl)c(Cl)c1)C1CCC(=O)N1[C@@H](Cc1ccccc1)C(=O)NCCc1ccc(Cl)cc1 (some centres undefined)"
value = "0% (inactive)"

[[record]]
molecule = "CN1CCc2cc(I)c(O)cc2C1Cc1ccccc1Cl (centres undefined)"
value = "-2% (inactive)"

[[record]]
molecule = "Cc1ccccc1CNc1ccc2nc(N)nc(N)c2c1"
value = "-3% (inactive)"

[[record]]
molecule = "Cc1ccc(CNC(=O)[C@H](CC(C)C)Nc2cc(C)nc(NCC3CCCCC3)n2)cc1"
value = "-2% (inactive)"

[[record]]
molecule = "Cc1cc(F)ccc1Oc1nc(Nc2ccc(N3CCOCC3)c(F)c2)nc2c1S(=O)(=O)CCC2"
value = "0% (inactive)"


GET /values?readout=inhibition&item= COc1ccc(NC(=O)/C=C/c2ccc(Cl)c(C(F)(F)F)c2)cc1OCCN(C(C)C)C(C)C
-1% (inactive)

Try CC(C)C[C@H]1c2[nH]c3ccc(Cl)cc3c2CCN1C(=O)CCc1ccccc1 next.
6% (inactive)

Try Cc1cccc2[nH]c(-c3ccc(-c4ccc(NC(=O)C(C)CN5CCN(C)CC5)cc4)s3)nc12 (centres undefined) next.
-2% (inactive)

Try Fc1cccc2sc(Nc3nc(-c4ccccn4)cs3)nc12 next.
6% (inactive)

Try c1ccc2cc3c(Nc4ccc(N5CCCCC5)cc4)ccnc3cc2c1 next.
-4% (inactive)

Try Fc1ccc(CNc2nc(-c3ccc(F)c(C(F)(F)F)c3)n(-c3cccc(C(F)(F)F)c3)n2)cc1 next.
-1% (inactive)

Try COc1ccc(CNC2Cc3ccccc3C2)cc1-c1ccc(S(=O)(=O)NCCc2ccccn2)s1 next.
0% (inactive)

Try COc1ccc2nccc(CCN3C[C@H](CNCc4ccc5c(n4)NC(=O)CS5)[C@H](O)C3)c2n1 next.
-2% (inactive)

Try COc1cccc(C2CCN(CCN3CCC(CNC(=O)c4ccc(-c5ccc(C(F)(F)F)cc5)cc4)CC3)CC2)c1 next.
-2% (inactive)

----------
- target-or-system: L-lactate dehydrogenase (Plasmodium falciparum (isolate CDC / Honduras)) (UniProt Q27743)
- Sequence (Q27743 whole entry, looked up): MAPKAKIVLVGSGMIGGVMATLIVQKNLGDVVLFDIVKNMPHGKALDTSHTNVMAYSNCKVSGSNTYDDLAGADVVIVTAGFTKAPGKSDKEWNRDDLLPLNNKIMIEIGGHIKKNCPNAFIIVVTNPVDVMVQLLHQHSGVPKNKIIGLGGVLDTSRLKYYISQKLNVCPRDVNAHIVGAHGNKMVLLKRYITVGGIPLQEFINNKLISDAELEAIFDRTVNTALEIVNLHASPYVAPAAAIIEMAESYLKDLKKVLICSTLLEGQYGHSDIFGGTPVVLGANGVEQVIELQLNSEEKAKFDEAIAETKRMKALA
- method-summary: PfLDH activity inhibition – cell lysate, 3D7 strain, counter-screen for P. falciparum growth inhibition project (AID 2304);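 further: 0% = vehicle and 100% = reference inhibitor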
- reported-conditions: P. falciparum 3D7 crude extract, LDH APAD/NBT absorbance; at 2 µM; hits give high values
measured-quantity: inhibition (%)
Note: unit % is implicit; provide only the numeric part.

Sample records with inhibition:
[[record]]
compound = "COc1cccc(-c2cccc(NC(=O)C3CCN(Cc4ccc(O)cc4)CC3)c2)c1"
value = 0

[[record]]
compound = "CN(C(=O)/C=C/c1ccccc1F)C1CCN(CCCCCNC(=O)/C=C/c2ccc(Cl)c(Cl)c2)CC1"
value = -1

[[record]]
compound = "CCN1CCC(N(Cc2ccc(-c3ccc(C(F)(F)F)cc3)cc2)C(=O)Cn2c(CCc3cccc(F)c3F)cc(=O)c3cn(C)nc32)CC1"
value = 2


GET /values?readout=inhibition&item= OC(CNCCCc1ccccc1)c1cc(OCc2ccccc2)cc(OCc2ccccc2)c1 (stereo not given)
4

Try COc1cc(C(C)C)ccc1N1CCN(CCCCNC(=O)c2ccc(NC(=O)c3ccc(Cl)cc3)cc2)CC1 next.
3

Try O=C(Nc1ccc2c(c1)CCN2C1CCN(Cc2cccc(F)c2F)C1)c1ccco1 (stereo not given) next.
0

Try N=c1ccn(CC(=NO)c2ccc(Cl)c(Cl)c2)cc1 next.
-2

Try Cc1nc(-c2nc(NCc3ccccn3)ncc2-c2ccsc2)sc1C next.
4

Where these numbers come from: PubChem BioAssay
